- experiment: INCB001158 plasma pharmacokinetics
- Type: in vivo, human
- appliedConditions: human, plasma, oral, 75 mg, t1/2 (mean±SD), Part 1a C1D1 single dose 75 mg (n=7)
property: half-life (h)
Form entry: value (h) — number only.

Sample C[C@H](N)C(=O)N1C[C@H](CCCB(O)O)[C@](N)(C(=O)O)C1 — what was its half-life? 5.3

* * *

- experiment: INCB001158 plasma pharmacokinetics
- Format: in vivo, human
- appliedConditions: human, plasma, oral, 50 mg, Cmax (mean±SD), Part 1a C1D1 single dose 50 mg (n=8)
property: Cmax (ng/mL)
Lab book: enter the figure in ng/mL, no units written.

Returns the measured Cmax for the input compound. Input: C[C@H](N)C(=O)N1C[C@H](CCCB(O)O)[C@](N)(C(=O)O)C1 795

* * *

- experiment: INCB001158 plasma pharmacokinetics
- Format: in vivo, human
- appliedConditions: human, plasma, oral, 75 mg, Cmax (mean±SD), Part 1a C1D1 single dose 75 mg (n=7)
property: Cmax
I'd appreciate it if you wrote the number followed by its unit.

So what does the record say about Cmax for C[C@H](N)C(=O)N1C[C@H](CCCB(O)O)[C@](N)(C(=O)O)C1 [INCB001158] ? 1350 ng/mL

* * *

- experiment: INCB001158 plasma pharmacokinetics
- Type: in vivo, human
- appliedConditions: human, plasma, oral, 50 mg, t1/2 (mean±SD), Part 1a C1D1 single dose 50 mg (n=8)
property: half-life

Requested read-out: half-life. Entry: C[C@H](N)C(=O)N1C[C@H](CCCB(O)O)[C@](N)(C(=O)O)C1 5.5 h
